From: the supplement of paper PMC11061612

Tested on: OE21 (Esophageal Squamous Cell Carcinoma)
Test: combination Emax (second highest fraction inhibited in the dose matrix, 72 h); higher = more inhibition; extreme values may be limits of the assay
Please mark yes (1) if the recorded combination Emax is equal to or greater than 0.6, and no (0) if it falls below.

Example entries and their recorded answers appear below.
CC1(C)CCC(CN2CCN(c3ccc(C(=O)NS(=O)(=O)c4ccc(NCC5CCOCC5)c([N+](=O)[O-])c4)c(Oc4cnc5[nH]ccc5c4)c3)CC2)=C(c2ccc(Cl)cc2)C1 [Venetoclax] + CN(C)CCCOc1ccc(-c2ccc3ncc4c(c3c2)n(C2CCOCC2)c(=O)n4C)cn1 [AZD0156] (first compound max 1 µM, 7x7, partner max 1 µM)
no (0)
C[C@@H](c1ccc2nccn2c1)n1nnc2ncc(-c3cnn(C)c3)nc21 [Savolitinib] + CC1(C)CCC(CN2CCN(c3ccc(C(=O)NS(=O)(=O)c4ccc(NCC5CCOCC5)c([N+](=O)[O-])c4)c(Oc4cnc5[nH]ccc5c4)c3)CC2)=C(c2ccc(Cl)cc2)C1 [Venetoclax] (first compound max 1 µM, 7x7, partner max 1 µM)
no (0)
NC1(C(=O)N[C@@H](CCO)c2ccc(Cl)cc2)CCN(c2ncnc3[nH]ccc23)CC1 [Capivasertib] + CCN(CCO)CCCOc1ccc2c(Nc3cc(CC(=O)Nc4cccc(F)c4)[nH]n3)ncnc2c1 [AZD2811] (first compound max 10 µM, 7x7, partner max 1 µM)
yes (1)
Cc1c2c(nn1C)CSCc1cc(n(C)n1)CSc1cc(c3ccccc3c1)OCCCc1c(C(=O)O)n(C)c3c-2c(Cl)ccc13 [AZD5991] + C[C@@H](Nc1cc(F)cc(F)c1)c1cc(C(=O)N(C)C)cc2c(=O)cc(N3CCOCC3)oc12 [AZD8186] (first compound max 1 µM, 7x7, partner max 3 µM)
no (0)
COc1cccc(OCCCN)c1-c1cc(Nc2cnc(C#N)cn2)n[nH]1 [Prexasertib] + C=CCn1c(=O)c2cnc(Nc3ccc(N4CCN(C)CC4)cc3)nc2n1-c1cccc(C(C)(C)O)n1 [AZD1775] (first compound max 1 µM, partner max 1 µM)
yes (1)

Continue with the next compound.
combination Emax >= 0.6 for NC1(C(=O)N[C@@H](CCO)c2ccc(Cl)cc2)CCN(c2ncnc3[nH]ccc23)CC1 [Capivasertib] + C[C@@H]1COCCN1C2=NC(=NC(=C2)C3(CC3)[S@](=N)(=O)C)C4=C5C=CNC5=NC=C4 [AZD6738] (first compound max 10 µM, 7x7, partner max 10 µM) ?
yes (1)
